system: SK-MEL-2 melanoma; assay: NCI tumour cell line growth inhibition, 48 h
compounds and their reported TGI
QUANTITY NAME: TGI

>  <COMPOUND>
COc1ccc(N=C2C(=Nc3ccc(OC)cc3)N(c3ccc(N(C)C)cc3)C(=S)N2c2ccc(OC)cc2)cc1

>  <QUANTITY NAME>
TGI

>  <OBSERVED MEASUREMENT>
> 100 µM

$$$$
>  <COMPOUND>
CN(C)CCSCCO

>  <QUANTITY NAME>
TGI

>  <OBSERVED MEASUREMENT>
> 100 µM

$$$$
>  <COMPOUND>
CCOC(=O)C(C(=O)OCC)C(=O)c1ccccc1C(=O)c1ccccc1

>  <QUANTITY NAME>
TGI

>  <OBSERVED MEASUREMENT>
> 100 µM

$$$$
>  <COMPOUND>
CC1CCCc2c1c1ccc3c(O)cccc3c1oc2=O (stereo not given)

>  <QUANTITY NAME>
TGI

>  <OBSERVED MEASUREMENT>
> 100 µM

$$$$
>  <COMPOUND>
O=C(Nc1ccc(Br)cc1)C(=O)C(C(=O)c1ccccc1F)C1OC(=O)c2ccccc21 (stereo not given)

>  <QUANTITY NAME>
TGI

>  <OBSERVED MEASUREMENT>
68.6 µM

$$$$
>  <COMPOUND>
COC12C=CC(C=C1C#N)CC2 (stereo not given) (tested in a mixture with another compound)

>  <QUANTITY NAME>
TGI

>  <OBSERVED MEASUREMENT>
> 100 µM

$$$$
>  <COMPOUND>
COc1ccc(-c2ccc(-c3ccc(C(=N)N)cn3)o2)cc1Cl

>  <QUANTITY NAME>
TGI

>  <OBSERVED MEASUREMENT>
3.81 µM

$$$$
>  <COMPOUND>
CCN(CC)CCn1c2ccc(OC)cc2c2sc3cc(OC)ccc3c(=O)c21

>  <QUANTITY NAME>
TGI

>  <OBSERVED MEASUREMENT>
4.68 µM

$$$$
>  <COMPOUND>
COC12CCC(C(C(=O)c3ccccc3)=C1C(=O)c1ccccc1)C(O)C2 (stereo not given)

>  <QUANTITY NAME>
TGI

>  <OBSERVED MEASUREMENT>
> 100 µM

$$$$
>  <COMPOUND>
Fc1ccc2c(c1)C1=C(CO2)C(c2ccc(Cl)cc2)NC(=S)N1 (stereo not given)

>  <QUANTITY NAME>
TGI

>  <OBSERVED MEASUREMENT>
46.9 µM

$$$$
>  <COMPOUND>
CCN(CC)CCOc1ccc(C(O)(Cc2ccc(OC)cc2)c2ccccc2)cc1 (stereo not given)

>  <QUANTITY NAME>
TGI

>  <OBSERVED MEASUREMENT>
35.9 µM

$$$$
>  <COMPOUND>
COc1cc(/C=C\c2ccc(Br)cc2)cc(OC)c1OC

>  <QUANTITY NAME>
TGI

>  <OBSERVED MEASUREMENT>
> 100 µM

$$$$
>  <COMPOUND>
O=C(O)CCc1ccc2c(c1)CC1(Cc3ccccc3C1)C2

>  <QUANTITY NAME>
TGI

>  <OBSERVED MEASUREMENT>
> 100 µM

$$$$
>  <COMPOUND>
C=Cc1nc(C#N)c(N)o1

>  <QUANTITY NAME>
TGI

>  <OBSERVED MEASUREMENT>
> 100 µM

$$$$
>  <COMPOUND>
COc1c2ccsc2c(OC)c2ccsc12

>  <QUANTITY NAME>
TGI

>  <OBSERVED MEASUREMENT>
> 100 µM

$$$$
>  <COMPOUND>
O=C(c1ccc(O)c([N+](=O)[O-])c1)c1ccc(O)c([N+](=O)[O-])c1

>  <QUANTITY NAME>
TGI

>  <OBSERVED MEASUREMENT>
> 100 µM

$$$$
>  <COMPOUND>
CN(C)c1ccc(/C=C/C(=O)O)cc1

>  <QUANTITY NAME>
TGI

>  <OBSERVED MEASUREMENT>
> 100 µM

$$$$
>  <COMPOUND>
COc1cccc(C2SC(C)C(=O)N2CCc2cccs2)c1 (stereo not given)

>  <QUANTITY NAME>
TGI

>  <OBSERVED MEASUREMENT>
11.5 µM

$$$$
>  <COMPOUND>
COc1cc(C2CC(=O)Nc3c2ccc2ccccc32)cc(Br)c1OC (stereo not given)

>  <QUANTITY NAME>
TGI

>  <OBSERVED MEASUREMENT>
> 100 µM

$$$$
>  <COMPOUND>
CC(=O)OCCCCn1cc(Cn2ccc(=O)n(Cc3cn(CCCCOC(C)=O)nn3)c2=O)nn1

>  <QUANTITY NAME>
TGI

>  <OBSERVED MEASUREMENT>
> 100 µM

$$$$
>  <COMPOUND>
CNC(=S)NNc1ncnc2c1ncn2-c1ccc(C)cc1

>  <QUANTITY NAME>
TGI

>  <OBSERVED MEASUREMENT>
> 100 µM

$$$$
>  <COMPOUND>
CCCN(CCC)C1CCc2c(ccc3cc[nH]c23)C1 (stereo not given)

>  <QUANTITY NAME>
TGI

>  <OBSERVED MEASUREMENT>
> 100 µM

$$$$
>  <COMPOUND>
Nc1nc(=O)n(C2OC(CO)C(O)C2O)c2ncc(-c3ccc(-c4ccccc4)cc3)nc12 (stereo not given)

>  <QUANTITY NAME>
TGI

>  <OBSERVED MEASUREMENT>
> 100 µM

$$$$
>  <COMPOUND>
Cc1cc2oc(C)c(S(=O)(=O)NC(=O)Nc3ccc(Cl)cc3)c(=O)c2c(=O)o1

>  <QUANTITY NAME>
TGI

>  <OBSERVED MEASUREMENT>
> 100 µM

$$$$
>  <COMPOUND>
c1csc(-c2ccsc2-c2ccsc2)c1

>  <QUANTITY NAME>
TGI

>  <OBSERVED MEASUREMENT>
42.3 µM

$$$$
>  <COMPOUND>
O=C(N/N=C/c1ccc(Cl)cc1Cl)c1ccc2nc(-c3ccc(Cl)cc3)[nH]c2c1

>  <QUANTITY NAME>
TGI

>  <OBSERVED MEASUREMENT>
4.64 µM

$$$$
>  <COMPOUND>
NS(=O)(=O)c1ccc(-n2ncc3c(Nc4ccccc4)ncnc32)cc1

>  <QUANTITY NAME>
TGI

>  <OBSERVED MEASUREMENT>
> 100 µM

$$$$
>  <COMPOUND>
CC12ON(P(=O)(c3ccccc3)c3ccccc3)C(C)(c3ccccc31)c1ccccc12

>  <QUANTITY NAME>
TGI

>  <OBSERVED MEASUREMENT>
> 100 µM

$$$$
>  <COMPOUND>
CC12CCC(C(=Nc3cc(C(F)(F)F)cc(C(F)(F)F)c3)C1=O)C2(C)C (stereo not given)

>  <QUANTITY NAME>
TGI

>  <OBSERVED MEASUREMENT>
51.2 µM

$$$$
>  <COMPOUND>
FC(F)(F)c1cccc2c(SCCc3n[nH]c(=S)o3)ccnc12

>  <QUANTITY NAME>
TGI

>  <OBSERVED MEASUREMENT>
82.6 µM

$$$$
>  <COMPOUND>
CN[C@@H](C)[C@@H](O)c1ccccc1

>  <QUANTITY NAME>
TGI

>  <OBSERVED MEASUREMENT>
> 100 µM

$$$$
>  <COMPOUND>
COC(=O)C1=CON2C3CC4CC(C3)CC(C4)C12C (stereo not given)

>  <QUANTITY NAME>
TGI

>  <OBSERVED MEASUREMENT>
> 100 µM

$$$$
>  <COMPOUND>
CCNNC(=O)[C@@H]1[C@H](c2cc(OC)c(OC)c(OC)c2)c2cc3c(cc2[C@H](O)[C@H]1CO)OCO3

>  <QUANTITY NAME>
TGI

>  <OBSERVED MEASUREMENT>
> 100 µM

$$$$
>  <COMPOUND>
CCCCCCCCCCCCCCCCCC(=O)Nc1ccn(C2CCC(COP(=O)(O)O)O2)c(=O)n1 (stereo not given)

>  <QUANTITY NAME>
TGI

>  <OBSERVED MEASUREMENT>
> 100 µM

$$$$
>  <COMPOUND>
NC(=O)c1ccccc1NC(=O)c1ccccc1Cl

>  <QUANTITY NAME>
TGI

>  <OBSERVED MEASUREMENT>
> 100 µM

$$$$
>  <COMPOUND>
CC(C)C(=O)[O-].CC(C)C(=O)[O-].N.N.N.N.[Co+3].[O-][Cl+3]([O-])([O-])[O-]

>  <QUANTITY NAME>
TGI

>  <OBSERVED MEASUREMENT>
> 100 µM

$$$$
>  <COMPOUND>
O=[N+]([O-])c1ccc([N+]2=NC(c3ccccc3)=NN(c3ccccc3)C2)cc1

>  <QUANTITY NAME>
TGI

>  <OBSERVED MEASUREMENT>
92.4 µM

$$$$
>  <COMPOUND>
O=C(N/C(=C\c1ccc(/C=C(\NC(=O)c2ccccc2)c2nc3ccccc3s2)cc1)c1nc2ccccc2s1)c1ccccc1

>  <QUANTITY NAME>
TGI

>  <OBSERVED MEASUREMENT>
19.2 µM

$$$$
>  <COMPOUND>
CCCCn1c2ccccc2c2ccc3c(c21)C(=O)C=CC3=O

>  <QUANTITY NAME>
TGI

>  <OBSERVED MEASUREMENT>
> 100 µM

$$$$
>  <COMPOUND>
Cc1ncc(CCl)c(CCl)c1O

>  <QUANTITY NAME>
TGI

>  <OBSERVED MEASUREMENT>
> 100 µM

$$$$
>  <COMPOUND>
O=c1cccccc1[O-].O=c1cccccc1[O-].O=c1cccccc1[O-].[Ce+3]

>  <QUANTITY NAME>
TGI

>  <OBSERVED MEASUREMENT>
51.6 µM

$$$$
>  <COMPOUND>
COc1cc2c(cc1OC)[C@@](C)(C(O)C(O)C(C)(C)O)NCC2 (stereo not given in full)

>  <QUANTITY NAME>
TGI

>  <OBSERVED MEASUREMENT>
> 100 µM

$$$$
>  <COMPOUND>
CCOC(=O)c1ccc(N2C(=O)Cc3ccccc3C2=O)cc1

>  <QUANTITY NAME>
TGI

>  <OBSERVED MEASUREMENT>
> 100 µM

$$$$
>  <COMPOUND>
CC(=O)/C=C1\CC(=O)Nc2ccccc2N1

>  <QUANTITY NAME>
TGI

>  <OBSERVED MEASUREMENT>
> 100 µM

$$$$
>  <COMPOUND>
CC1=CCC[C@H]2[C@](C)(CC3=CC(=O)C(Sc4ccccc4)=CC3=O)[C@@H](C)CC[C@]12C

>  <QUANTITY NAME>
TGI

>  <OBSERVED MEASUREMENT>
56.1 µM

$$$$
